tested on: U-251; experiment: NCI tumour cell line growth inhibition, 48 h
Activity calls are given as the source filed them. Cut-off read from the data, not from the text of the source: active = GI50 up to about 1.1 µM and inactive = higher.
measured.parameter: GI50

Recorded GI50, per entry:
molecule | GI50
CCSc1nc(-c2cccs2)nc2ccc(I)cc12 | > 100 µM (inactive)
CN(C)CCCN1C(=S)N(CCCN(C)C)c2c3ccccc3nc3c([N+](=O)[O-])ccc1c23 | 6.87 µM (inactive)
COc1ccc(-c2cc(-c3ccco3)c(C#N)c(=S)n2C2OC(CO)C(O)C(O)C2O)cc1 (stereo not given) | 82.8 µM (inactive)
Cc1ccnc2sc3ccccc3c(=O)c12 | 56.8 µM (inactive)

# context switch: different molecule, same GI50
Q: Name the recorded GI50 for "COc1ccc(-c2nc(-c3ccc(OC)cc3)n(-c3ccccc3)n2)cc1" .
Result: 78.9 µM (inactive)
